B1: CPEB3 Ribozyme (parent)
chain: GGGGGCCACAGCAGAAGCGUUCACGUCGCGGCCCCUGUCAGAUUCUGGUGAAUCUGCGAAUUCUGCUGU

Variants of: B1
assay-overview: self-cleavage, relative activity (ratio to wild type); higher = more cleavage; co-transcriptional
Category | rule: reported self-cleavage within range, see lower band: < 0.2; central band: ≥ 0.2 and < 0.6; upper band: ≥ 0.6

Reference set (5 entries):
G4A G30A    central band
C7U A15C    upper band
G41A U67G    upper band
A23G U55G    upper band
G4C U26G    central band

Query string: Kindly identify the class of G19A G30A .
Result string: lower band

Data credit: the RNAGym collection of RNA variant scans (doi:10.7554/elife.80360)
